I'd appreciate it if you could supply Activity values for the items below.
- systemName: UniProtKB P33032
- Sequence (P33032 whole entry): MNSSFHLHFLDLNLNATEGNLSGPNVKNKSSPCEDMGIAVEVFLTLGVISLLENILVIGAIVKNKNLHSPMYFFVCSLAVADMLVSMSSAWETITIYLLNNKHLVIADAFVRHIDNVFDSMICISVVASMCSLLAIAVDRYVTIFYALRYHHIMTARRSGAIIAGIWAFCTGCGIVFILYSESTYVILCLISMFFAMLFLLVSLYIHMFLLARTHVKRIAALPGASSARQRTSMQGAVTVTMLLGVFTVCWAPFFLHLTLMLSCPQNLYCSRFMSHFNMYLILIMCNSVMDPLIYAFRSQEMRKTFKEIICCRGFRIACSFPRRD
- experimentalProtocol: Agonist activity at human MC5R expressed in CHO cells assessed as cAMP release at 10 uM relative to alpha-MSH
- Assay type: functional, cell-based

Known Activity results, listed for orientation:
CC[C@H](NC(C)=O)c1cc(Cl)ccc1C1CCN(C(=O)[C@@H]2CN(C(C)(C)C)C[C@H]2c2ccc(Cl)cc2F)CC1	98%
CC[C@H](NC(C)=O)c1cc(Cl)ccc1C1CCN(C(=O)[C@@H]2CN(C(C)(C)C)C[C@H]2c2ccc(OC)cc2F)CC1	101%

// next item, Activity requested
*Q* What value of Activity has been recorded for this entry: `CC[C@H](NC(C)=O)c1cc(Cl)ccc1C1CCN(C(=O)[C@H]2CN(C(C)(C)C)C[C@@H]2c2ccc(Cl)cc2Cl)CC1`
*A* 10%
